Test system: HeLa Kyoto;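 further: HeLa Kyoto cells synchronized by double thymidine or nocodazole block, proteins quantified by TMT10plex mass spectrometry, three independent biological replicates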
Test: melting temperature (median over replicates), in situ; higher = more thermally stable
Details: cell cycle stage: G1/S
observation type: melting temperature (°C)
Give bare numbers, in °C.

# count of solved cases: 5
{"seq text": "MNGRVDYLVTEEEINLTRGPSGLGFNIVGGTDQQYVSNDSGIYVSRIKENGAAALDGRLQEGDKILSVNGQDLKNLLHQDAVDLFRNAGYAVSLRVQHRLQVQNGPIGHRGEGDPSGIPIFMVLVPVFALTMVAAWAFMRYRQQL [SYNJ2BP]", "target of assay": "HeLa Kyoto", "melting temperature / °C": 51.6}
{"seq text": "MNMTQARVLVAAVVGLVAVLLYASIHKIEEGHLAVYYRGGALLTSPSGPGYHIMLPFITTFRSVQTTLQTDEVKNVPCGTSGGVMIYIDRIEVVNMLAPYAVFDIVRNYTADYDKTLIFNKIHHELNQFCSAHTLQEVYIELFDQIDENLKQALQKDLNLMAPGLTIQAVRVTKPKIPEAIRRNFELMEAEKTKLLIAAQKQKVVEKEAETERKKAVIEAEKIAQVAKIRFQQKVMEKETEKRISEIEDAAFLAREKAKADAEYYAAHKYATSNKHKLTPEYLELKKYQAIASNSKIYFGSNIPNMFVDSSCALKYSDIRTGRESSLPSKEALEPSGENVIQNKESTG [ERLIN1]", "target of assay": "HeLa Kyoto", "melting temperature / °C": 52.7}
{"seq text": "MSGPRPVVLSGPSGAGKSTLLKRLLQEHSGIFGFSVSHTTRNPRPGEENGKDYYFVTREVMQRDIAAGDFIEHAEFSGNLYGTSKVAVQAVQAMNRICVLDVDLQGVRNIKATDLRPIYISVQPPSLHVLEQRLRQRNTETEESLVKRLAAAQADMESSKEPGLFDVVIINDSLDQAYAELKEALSEEIKKAQRTGA [GUK1]", "target of assay": "HeLa Kyoto", "melting temperature / °C": 48.9}
{"seq text": "MFCVTPPELETKMNITKGGLVLFSANSNSSCMELSKKIAERLGVEMGKVQVYQEPNRETRVQIQESVRGKDVFIIQTVSKDVNTTIMELLIMVYACKTSCAKSIIGVIPYFPYSKQCKMRKRGSIVSKLLASMMCKAGLTHLITMDLHQKEIQGFFNIPVDNLRASPFLLQYIQEEIPDYRNAVIVAKSPASAKRAQSFAERLRLGIAVIHGEAQDAESDLVDGRHSPPMVRSVAAIHPSLEIPMLIPKEKPPITVVGDVGGRIAIIVDDIIDDVDSFLAAAETLKERGAYKIFVMATHGLLSSDAPRRIEESAIDEVVVTNTIPHEVQKLQCPKIKTVDISMILSEAIRRIHNGESMSYLFRNIGLDD [PRPSAP2]", "target of assay": "HeLa Kyoto", "melting temperature / °C": 57.5}
{"seq text": "MAGKKVLIVYAHQEPKSFNGSLKNVAVDELSRQGCTVTVSDLYAMNLEPRATDKDITGTLSNPEVFNYGVETHEAYKQRSLASDITDEQKKVREADLVIFQFPLYWFSVPAILKGWMDRVLCQGFAFDIPGFYDSGLLQGKLALLSVTTGGTAEMYTKTGVNGDSRYFLWPLQHGTLHFCGFKVLAPQISFAPEIASEEERKGMVAAWSQRLQTIWKEEPIPCTAHWHFGQ [NQO2]", "target of assay": "HeLa Kyoto", "melting temperature / °C": 59}

The record that follows has no melting temperature shown yet.
Memo: MVGPAPRRRLRPLAALALVLALAPGLPTARAGQTPRPAERGPPVRLFTEEELARYGGEEEDQPIYLAVKGVVFDVTSGKEFYGRGAPYNALTGKDSTRGVAKMSLDPADLTHDTTGLTAKELEALDEVFTKVYKAKYPIVGYTARRILNEDGSPNLDFKPEDQPHFDIKDEF [NENF] , reported melting temperature: 55.3

Ref: the supplement of paper PMC5998384
